Molecular target: Cytochrome P450 1A2 (Homo sapiens) (UniProt P05177)
Sequence (P05177 whole entry, looked up): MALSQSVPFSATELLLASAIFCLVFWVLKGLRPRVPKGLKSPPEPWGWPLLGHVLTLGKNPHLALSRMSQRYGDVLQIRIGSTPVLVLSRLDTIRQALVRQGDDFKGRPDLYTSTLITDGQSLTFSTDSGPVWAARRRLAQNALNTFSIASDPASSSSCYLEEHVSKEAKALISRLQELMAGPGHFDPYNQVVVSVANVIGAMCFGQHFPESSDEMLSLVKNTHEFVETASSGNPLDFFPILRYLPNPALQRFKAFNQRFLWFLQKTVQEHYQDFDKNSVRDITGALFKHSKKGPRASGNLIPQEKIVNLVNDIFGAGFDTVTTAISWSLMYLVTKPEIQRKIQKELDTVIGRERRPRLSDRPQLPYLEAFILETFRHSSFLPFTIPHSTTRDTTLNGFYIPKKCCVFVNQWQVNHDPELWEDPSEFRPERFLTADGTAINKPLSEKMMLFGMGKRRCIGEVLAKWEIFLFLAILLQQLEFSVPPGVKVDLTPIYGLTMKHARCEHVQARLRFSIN
Assay: Cytochrome panel assay with activity outcomes
Details: recombinant CYP, pro-luciferin dealkylation, luminescence, p450-cyp1a2; series mostly up to 57.1 µM
Screen size: about 16,000 compounds; about 5,700 (36%) were called active. Inconclusive results (about 24%) are left out. Calls come from the whole dose curve; as a rule, active = well fitted curve in the direction sought with a large enough effect; inconclusive = small, poorly fitted or top-dose-only effect, or effect the other way; inactive = no such curve, though single readings can be large or run the other way. Some of the results follow.
Classes used: active, inactive

Nc1nc2ccc(Cl)cc2c2nc(-c3ccco3)nn12 = active
CO[C@@H]1CC=C2CCN3CCC4=C(CC(=O)OC4)[C@]23C1 = inactive
O=C1NC(=O)N(CCNc2ncc(C(F)(F)F)cc2Cl)C(=O)C1/C=N/OCc1c(F)cccc1Cl (centres undefined) = inactive
CC(C)C[C@H](NP(=O)(O)O[C@@H]1O[C@@H](C)[C@@H](O)[C@@H](O)[C@H]1O)C(=O)N[C@@H](Cc1c[nH]c2ccccc12)C(=O)O = inactive
c1ccc(CN2CCN(Cc3ccc4c(c3)OCCO4)CC2)cc1 = inactive
COc1ccc(-n2nc(C(F)(F)F)cc2-c2ccc(Cl)cc2)cc1 = active
CC(=O)NCCc1c[nH]c2ccccc12 = active
CCOC(=O)N(c1ccccc1)P1(=S)OCCO1 = active
CCN1C[C@@]2(COC)CC[C@H](OC)[C@]34[C@@H]1[C@]1(OCO[C@@]15C[C@@H](OC)C1C[C@H]3[C@H]5[C@@H]1OC)[C@H](O)[C@@H]24 = inactive
C[N+]1(C)C2CC(OC(=O)C(CO)c3ccccc3)CC1[C@@H]1O[C@H]21 (some centres undefined) = inactive
CNC(=O)Oc1ccc2c(c1)[C@@]1(C)CCN(C)[C@@H]1N2C = inactive
CC(=O)OCC(=O)[C@@H]1CC[C@H]2[C@H]3CC[C@H]4C[C@@H](O)CC[C@]4(C)[C@@H]3C(=O)C[C@@]12C = inactive
C[N+]1(C)[C@@H]2CC[C@H]1CC(OC(=O)[C@@H](CO)c1ccccc1)C2 (some centres undefined) = inactive
OCc1cnc[nH]1 = inactive
COc1cc(CN2CCN(C(=O)COc3ccccc3)CC2)cc(OC)c1OC = inactive
Cc1c2cc[n+](CCN3CCCCC3)cc2c(C)c2c1[nH]c1ccc(O)cc12 = active
CC[C@@H]1[C@@H]2C[C@H]3[C@H]4N(C)c5ccccc5[C@@]45C[C@@H]([C@@H]2[C@@H]5O)N3[C@H]1O = inactive
CC[C@]1(C2=NCCN2)Cc2ccccc2O1 = inactive
CP(=O)(O)C1=CCNCC1 = inactive
N[C@@H]1C=CC=C(C(=O)O)C1 = inactive
Cc1c(C(=O)c2ccc3ccccc3c2)c2cccc3c2n1[C@H](CN1CCOCC1)CO3 = inactive
CCN1C[C@@]2(COC)CC[C@H](O)[C@@]34[C@@H]2C[C@@H]([C@@H]13)[C@]1(O)C[C@@H](OC)C2C[C@H]4[C@H]1[C@H]2OC(C)=O = inactive
Cc1ccc(N(C)C(=O)Oc2cccc3ccc(C)nc23)cc1 = active
CC(C)(C)CC(=O)NC(=S)Nc1ccccc1C(F)(F)F = active
NCCc1c[nH]c2ccccc12 = active
CCN1C[C@]2(C)CC[C@@H](O)[C@]34[C@@H]5CC6[C@@H](OC)C[C@@](O)([C@H]5[C@@H]6O)[C@@H](C[C@@H]23)[C@H]14 = inactive
CN1Cc2c(ccc3c2OCO3)[C@@H]2[C@@H](O)Cc3cc4c(cc3[C@@H]21)OCO4 = active
Cn1c(=O)c2[nH]cnc2n(C)c1=O = inactive
OC(c1ccccc1)(c1ccccc1)C1CCNCC1 = inactive
c1cc(CN2CCC3(CCNCC3)CC2)ccn1 = inactive
CCCN(CCC)[C@@H]1CCc2cccc(O)c2C1 = inactive
COC(=O)Nc1nc2ccc(Sc3ccccc3)cc2[nH]1 = active
COC(=O)N1CCN(C(=O)Cc2ccc(Cl)c(Cl)c2)[C@H](CN2CCCC2)C1 = inactive
CN1CCc2cc3c(cc2[C@@H]1O)OCO3 = inactive
ClCCNc1nc2ccc(Cl)cc2[nH]1 = active
Oc1ccc2c3c1O[C@H]1c4[nH]c5ccccc5c4C[C@]4(O)[C@H](C2)N(CC2CC2)CC[C@@]314 = inactive
CNC(C)(C)Cc1ccccc1 = inactive
CNCC/C=C\c1cccnc1 = inactive
O=C(Nc1ccc(Cl)cc1C(=O)c1ccccc1)c1ccco1 = active
OC(c1ccccc1)(c1ccccc1)C1CCCN1 (centres undefined) = active
CN(C)C(=O)Oc1cccc([N+](C)(C)C)c1 = inactive
c1ccc([C@H]2CNCc3ccccc32)cc1 = inactive
NC(=NCCc1ccc(I)cc1)SCCCc1cnc[nH]1 = active
N[C@H](C(=O)O)c1cc(=O)[nH]o1 = inactive
